# target-desc: UniProt:P08581
# Sequence (P08581 25-1390): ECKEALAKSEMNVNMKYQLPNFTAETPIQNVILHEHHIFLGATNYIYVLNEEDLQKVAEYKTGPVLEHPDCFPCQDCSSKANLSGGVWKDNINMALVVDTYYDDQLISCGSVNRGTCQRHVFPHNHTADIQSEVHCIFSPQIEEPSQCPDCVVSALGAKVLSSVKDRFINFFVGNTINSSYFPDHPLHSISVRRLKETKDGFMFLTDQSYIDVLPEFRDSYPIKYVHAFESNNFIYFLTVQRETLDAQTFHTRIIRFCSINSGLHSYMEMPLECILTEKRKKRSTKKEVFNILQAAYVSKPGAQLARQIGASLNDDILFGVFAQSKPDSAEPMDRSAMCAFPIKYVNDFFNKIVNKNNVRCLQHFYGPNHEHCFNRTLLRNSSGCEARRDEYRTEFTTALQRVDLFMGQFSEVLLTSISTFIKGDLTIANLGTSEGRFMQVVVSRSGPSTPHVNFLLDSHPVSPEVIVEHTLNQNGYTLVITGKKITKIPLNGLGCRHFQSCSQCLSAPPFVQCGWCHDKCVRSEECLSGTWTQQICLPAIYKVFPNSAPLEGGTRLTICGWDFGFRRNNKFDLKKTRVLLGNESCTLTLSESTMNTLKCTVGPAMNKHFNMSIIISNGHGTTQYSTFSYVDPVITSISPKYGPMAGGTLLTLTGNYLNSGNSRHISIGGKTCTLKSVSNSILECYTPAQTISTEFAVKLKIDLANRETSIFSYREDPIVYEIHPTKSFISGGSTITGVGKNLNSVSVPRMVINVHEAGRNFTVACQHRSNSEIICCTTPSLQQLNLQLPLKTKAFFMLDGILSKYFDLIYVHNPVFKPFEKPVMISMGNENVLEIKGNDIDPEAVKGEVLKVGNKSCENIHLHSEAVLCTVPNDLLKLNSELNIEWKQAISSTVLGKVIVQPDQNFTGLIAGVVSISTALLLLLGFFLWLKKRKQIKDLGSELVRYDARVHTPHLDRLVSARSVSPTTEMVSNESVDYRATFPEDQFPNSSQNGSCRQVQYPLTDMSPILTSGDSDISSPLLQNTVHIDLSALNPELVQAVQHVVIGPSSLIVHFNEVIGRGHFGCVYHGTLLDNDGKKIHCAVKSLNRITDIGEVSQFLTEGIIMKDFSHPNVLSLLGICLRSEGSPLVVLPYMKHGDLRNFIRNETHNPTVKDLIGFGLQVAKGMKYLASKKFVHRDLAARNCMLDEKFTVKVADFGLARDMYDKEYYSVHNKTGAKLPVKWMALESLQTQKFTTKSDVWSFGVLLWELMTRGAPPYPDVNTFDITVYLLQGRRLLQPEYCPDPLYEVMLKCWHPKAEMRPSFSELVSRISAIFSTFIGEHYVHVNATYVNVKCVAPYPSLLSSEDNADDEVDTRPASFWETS
# assay-protocol: c-Met TR-FRET kinase assay
# Type: biochemical
# test-context: 1000 nM compound
measured-parameter: inhibition at 1 µM (%)

Consider the following illustrative entries.
O=S(=O)(Nc1cc(-c2ccc(F)cc2F)cc(-n2cnc3cc(-c4cnco4)ccc32)c1)c1ccccc1: 2
O=C(NCc1ccco1)Nc1cc(-n2cccn2)cc(-n2cnc3cc(-n4cccn4)ccc32)c1: 0
CC(=O)Nc1cc(-c2ccc(F)cc2)cc(-n2cnc3cc(-n4cccn4)ccc32)c1: 0

(P) CC(=O)Nc1cc(-n2cccc2)cc(-n2cnc3cc(-c4cn(CCC(C)(C)O)nn4)ccc32)c1
(Q) CC(=O)Nc1cc(-c2ccc(C)o2)cc(-n2cnc3cc(-c4cnn(CCN5CCOCC5)c4)ccc32)c1
(R) CC(C)S(=O)(=O)Nc1cc(-c2ccc(F)cc2F)cc(-n2cnc3cc(-c4cnco4)ccc32)c1
(S) Cn1cc(-c2ccc3c(c2)ncn3-c2cc(NS(=O)(=O)N3CCCCC3)cc(-n3cccn3)c2)cn1
// query Would you mind ranking these compounds by ascending inhibition at 1 µM? List labels; respect the requested ordering.
// result P, Q, R, S

###

The listing below reports pIC50 for compounds tested on FGFR1 kinase (Homo sapiens (Human), UniProt P11362).
Sequence (P11362 22-822): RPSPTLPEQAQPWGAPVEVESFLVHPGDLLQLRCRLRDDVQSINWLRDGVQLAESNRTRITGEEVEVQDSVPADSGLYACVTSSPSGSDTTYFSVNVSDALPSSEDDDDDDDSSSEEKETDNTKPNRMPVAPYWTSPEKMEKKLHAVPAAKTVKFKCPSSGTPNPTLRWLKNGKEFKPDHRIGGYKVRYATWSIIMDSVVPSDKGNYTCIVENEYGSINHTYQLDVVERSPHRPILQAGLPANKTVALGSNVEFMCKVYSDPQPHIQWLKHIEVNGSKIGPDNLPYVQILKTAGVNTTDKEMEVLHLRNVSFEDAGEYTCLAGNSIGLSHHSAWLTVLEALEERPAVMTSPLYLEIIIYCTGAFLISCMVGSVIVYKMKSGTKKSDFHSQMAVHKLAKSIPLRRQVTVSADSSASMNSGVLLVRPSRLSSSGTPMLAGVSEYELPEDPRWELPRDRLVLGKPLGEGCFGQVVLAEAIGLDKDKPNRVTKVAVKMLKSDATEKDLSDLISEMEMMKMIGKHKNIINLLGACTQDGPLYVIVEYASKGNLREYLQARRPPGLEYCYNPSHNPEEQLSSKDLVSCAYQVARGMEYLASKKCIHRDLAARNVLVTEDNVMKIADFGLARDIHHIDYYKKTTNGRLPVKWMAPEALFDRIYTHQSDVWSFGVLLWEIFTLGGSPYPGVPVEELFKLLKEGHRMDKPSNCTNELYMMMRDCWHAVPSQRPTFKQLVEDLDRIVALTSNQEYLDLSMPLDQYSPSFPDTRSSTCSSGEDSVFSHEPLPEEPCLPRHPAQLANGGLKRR
pIC50: −log10 of the molar value.
measured-parameter: pIC50

// worked examples, pIC50 included
CCS(=O)(=O)Nc1cc(-c2ccc(F)cc2)cc(-n2cnc3cc(-n4cccn4)ccc32)c1 [Example 72]: 7.49
CCS(=O)(=O)Nc1cc(-c2ccc(F)cc2F)cc(-n2cnc3cc(-c4cn(CCN5CCOCC5)nn4)ccc32)c1 [Example 49]: 8.47

(I) CC(=O)Nc1cc(-c2ccc(F)cc2)cc(-n2cnc3cc(-c4ccc(F)nc4)ccc32)c1 [Example 170]
(II) CN1CCC(C(=O)Nc2cc(-c3ccc(F)cc3F)cc(-n3cnc4cc(-c5cnn(C)c5)cnc43)c2)CC1 [Example 319]
// query Kindly identify the item with the lower pIC50 figure among these two: I and II Write down the label attached to your selection.
// result I

(P) O=S(=O)(Nc1cc(C2=CC=C(F)CC2F)cc(-n2cnc3cc(N4CCC(O)C4)ccc32)c1)C1CC1 (centres unmarked) [Example 322]
(Q) CC(=O)Nc1cc(-c2ccc(F)cc2F)cc(-n2cnc3cc(-c4cnn(C)c4)cnc32)c1 [Example 131]
// query Could you determine which record has the numerically smaller pIC50? Candidates: P and Q Write the label of whichever entry you select.
// result P
